Provide the reported solubility at 5 min of each item.
experiment: Kinetic Turbidimetric Aqueous Solubility; format: physicochemical; settings: aqueous buffer, kinetic from dmso stock, PBS buffer, room temperature

Query string: I would be grateful if you could share the reported solubility at 5 min for `Fc1cncc(Nc2ccc3[nH]c(CSc4ccnc(C(F)(F)F)c4)nc3c2)c1` .
Result string: > 50 µM

Query string: I have this molecule here, `Fc1ccc(F)c(Nc2cccc(-n3cc(CNc4ccnc(C(F)(F)F)c4)nn3)c2)c1` , and I need its recorded solubility at 5 min.
Result string: > 10 µM

Query string: Quick one: solubility at 5 min for `Fc1cccc(Nc2ccc3[nH]c(CSc4ccnc(C(F)(F)F)c4)nc3c2)c1` ?
Result string: > 10 µM

Query string: Which measured solubility at 5 min value corresponds to `FC(F)(F)c1cc(SCc2nc3cc(Nc4ccccn4)ccc3[nH]2)ccn1` ?
Result string: > 50 µM
